Ref: patent US10144715B2

target.desc: LXR α LBD protein (Homo sapiens (Human), UniProt Q13133)
Sequence (Q13133 209-447): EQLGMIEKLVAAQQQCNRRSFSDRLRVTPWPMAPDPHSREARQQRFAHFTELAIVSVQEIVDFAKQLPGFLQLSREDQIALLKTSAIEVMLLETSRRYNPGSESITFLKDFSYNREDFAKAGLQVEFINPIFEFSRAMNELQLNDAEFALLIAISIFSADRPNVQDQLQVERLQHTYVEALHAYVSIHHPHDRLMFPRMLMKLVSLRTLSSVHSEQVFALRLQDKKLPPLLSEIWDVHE
assay.overview: LXR α radioligand binding assay (SPA, competition with [3H]TO901317)
condition.details: read-out: LXRα Binding Ki

molecule	target.desc	measurement.qualifier	Ki [nM]
CS(=O)(=O)c1cccc(N2CCN(C[C@H]3CC[C@H](C(F)F)CC3)[C@@H](c3ccccc3)C2)c1 (single isomer, unassigned)	LXR α LBD protein (Homo sapiens (Human), UniProt Q13133)	=	313
C[C@H](c1ccc(C(F)(F)F)cc1)N1CCN(c2cccc(S(C)(=O)=O)c2)C[C@H]1c1ccccc1	LXR α LBD protein (Homo sapiens (Human), UniProt Q13133)	>	3330
CS(=O)(=O)c1cccc(N2CCN(C[C@@H]3CCC[C@H](C(F)(F)F)C3)[C@@H](c3ccc(F)cc3)C2)c1 (single isomer, unassigned)	LXR α LBD protein (Homo sapiens (Human), UniProt Q13133)	=	196
CS(=O)(=O)c1cccc(N2CCN(C[C@H]3CCC[C@H](C(F)(F)F)C3)[C@@H](c3ccc(F)cc3)C2)c1	LXR α LBD protein (Homo sapiens (Human), UniProt Q13133)	=	2480
CNS(=O)(=O)c1cc(N2CCN(c3ncc(C(C)(C)O)c(C(F)(F)F)n3)[C@H](C(C)C)C2)ccc1F	LXR α LBD protein (Homo sapiens (Human), UniProt Q13133)	=	135
CS(=O)(=O)c1cccc(N2CCN(c3nccc(C(F)(F)F)n3)[C@H](C(F)(F)F)C2)c1	LXR α LBD protein (Homo sapiens (Human), UniProt Q13133)	=	422
CC(O)c1cnc(N2CCN(c3ccc(F)c(S(C)(=O)=O)c3)C[C@H]2C(C)C)nc1C(F)(F)F (mixture of isomers)	LXR α LBD protein (Homo sapiens (Human), UniProt Q13133)	=	230
CC(C)[C@H]1CN(c2ccc(CO)c(S(C)(=O)=O)c2)CCN1C[C@H]1CC[C@H](C(F)(F)F)OC1 (single isomer, unassigned)	LXR α LBD protein (Homo sapiens (Human), UniProt Q13133)	=	194
CC(C)[C@@H]1CN(c2ccc(CO)c(S(C)(=O)=O)c2)CCN1c1nc(C(F)(F)F)c(C(N)=O)s1	LXR α LBD protein (Homo sapiens (Human), UniProt Q13133)	=	1660
CC(C)[C@@H]1CN(c2ccc(F)c(S(C)(=O)=O)c2)CCN1c1ccc(C(F)(F)F)cn1	LXR α LBD protein (Homo sapiens (Human), UniProt Q13133)	=	30
CC1(C)CCC(CN2CCN(c3ccc(CO)c(S(C)(=O)=O)c3)C[C@@H]2c2ccccc2)CC1 (single isomer, unassigned)	LXR α LBD protein (Homo sapiens (Human), UniProt Q13133)	=	39
CC(=O)c1cnc(N2CCN(c3ccc(F)c(S(C)(=O)=O)c3)C[C@H]2C(C)C)nc1C(F)(F)F	LXR α LBD protein (Homo sapiens (Human), UniProt Q13133)	=	62
CC(C)[C@@H]1CN(c2ccc(F)c(S(C)(=O)=O)c2)CCN1c1ncc(CN(C)CCCO)c(C(F)(F)F)n1	LXR α LBD protein (Homo sapiens (Human), UniProt Q13133)	=	2060
CC(C)[C@@H]1CN(c2cccc(S(C)(=O)=O)c2)CCN1C(=O)OC(C)(C)C	LXR α LBD protein (Homo sapiens (Human), UniProt Q13133)	=	1690
